System: human induced pluripotent stem cells
Test: Etoposide sensitivity assay (ESA), Annexin V/PI flow cytometry
Format: cell-based
Settings: Homo sapiens, 24 h, poor quality clones/cells from unclean (UC) hiPSC cultures; feeder free

{"Compound": "COc1cc([C@@H]2c3cc4c(cc3[C@@H](O[C@@H]3O[C@@H]5CO[C@@H](C)O[C@H]5[C@H](O)[C@H]3O)[C@H]3COC(=O)[C@H]23)OCO4)cc(OC)c1O [etoposide]", "EC50": "> 0.3 µM"}
